- Tested on: P. vulgaris ATCC 33420
QUANTITY_MEASURED: MIC
Give your result as the value with the unit written after it.

Recorded result, CC1NC(=O)C(C(=O)NC(C(=O)NC2C(=O)N3C2SC(C)(C)C3C(=O)O)c2ccccc2)=C1O (stereo not shown) [Compound 2746] , MIC: 100 µg/mL

Recorded result, CC1(C)SC2C(NC(=O)C(NC(=O)C3=C(O)C4CCCN4C3=O)c3ccccc3)C(=O)N2C1C(=O)O (stereo not shown) [Compound 2780] , MIC: 12.5 µg/mL

Recorded result, CCN1CCN(C(=O)N[C@@H](C(=O)N[C@@H]2C(=O)N3[C@@H]2SC(C)(C)[C@@H]3C(=O)O)c2ccccc2)C(=O)C1=O [piperacillin, reference compound] , MIC: 1.56 µg/mL

Recorded result, CC1(C)SC2C(NC(=O)C(NC(=O)C3=C(O)C(Cc4ccc([N+](=O)[O-])cc4)NC3=O)c3ccccc3)C(=O)N2C1C(=O)O (stereo not shown) [Compound 2835] , MIC: 25 µg/mL

Recorded result, CN1CC(O)=C(C(=O)NC(C(=O)NC2C(=O)N3C2SC(C)(C)C3C(=O)O)c2ccccc2)C1=O (stereo not shown) [Compound 2742] , MIC: 100 µg/mL

Recorded result, CC1(C)S[C@@H]2[C@H](NC(=O)[C@H](N)c3ccccc3)C(=O)N2[C@H]1C(=O)O [ampicillin, reference compound] , MIC: 100 µg/mL

Recorded result, CC(C)CC1NC(=O)C(C(=O)NC(C(=O)NC2C(=O)N3C2SC(C)(C)C3C(=O)O)c2ccccc2)=C1O (stereo not shown) [Compound 1903] , MIC: 25 µg/mL

Recorded result, CC1(C)SC2C(NC(=O)C(NC(=O)C3=C(O)C(Cc4ccc(F)cc4)NC3=O)c3ccccc3)C(=O)N2C1C(=O)O (stereo not shown) [Compound 2782] , MIC: 12.5 µg/mL

Recorded result, CC1(C)SC2C(NC(=O)C(NC(=O)C3=C(O)C(Cc4ccccc4)NC3=O)c3ccccc3)C(=O)N2C1C(=O)O (stereo not shown) [Compound 2781] , MIC: 6.25 µg/mL

Recorded result, CC(C)(C)Oc1ccc(CC2NC(=O)C(C(=O)NC(C(=O)NC3C(=O)N4C3SC(C)(C)C4C(=O)O)c3ccccc3)=C2O)cc1 (stereo not shown) [Compound 1905] , MIC: 50 µg/mL

Recorded result, CC(C)(C)OCC1NC(=O)C(C(=O)NC(C(=O)NC2C(=O)N3C2SC(C)(C)C3C(=O)O)c2ccccc2)=C1O (stereo not shown) [Compound 1940] , MIC: 50 µg/mL

Recorded result, CC1(C)SC2C(NC(=O)C(NC(=O)C3=C(O)C4(CC4)NC3=O)c3ccccc3)C(=O)N2C1C(=O)O (stereo not shown) [Compound 2833] , MIC: 100 µg/mL

Recorded result, CC1(C)SC2C(NC(=O)C(NC(=O)C3=C(O)C(Cc4ccsc4)NC3=O)c3ccccc3)C(=O)N2C1C(=O)O (stereo not shown) [Compound 2916] , MIC: 6.25 µg/mL

* * *

- Tested on: P. aeruginosa PA01
- TEST: MIC, microbroth dilution in Mueller-Hinton broth
- Type: cell-based, Pseudomonas aeruginosa
- COND: Pseudomonas aeruginosa, PA01, read-out: MIC PA
For each entry below, report its MIC value.
Field: numeric (mg/L). Do not append units.

With P. aeruginosa PA01 as the test system, CC1(C)SC2C(NC(=O)C(NC(=O)C3=C(O)C4(CC4)NC3=O)c3ccccc3)C(=O)N2C1C(=O)O (stereo not drawn) showed MIC of 25

With P. aeruginosa PA01 as the test system, CC1(C)SC2C(NC(=O)C(NC(=O)C3=C(O)CN(c4ccccc4)C3=O)c3ccccc3)C(=O)N2C1C(=O)O (stereo not drawn) showed MIC of 50

With P. aeruginosa PA01 as the test system, CC1(C)SC2C(NC(=O)C(NC(=O)C3=C(O)CNC3=O)c3ccccc3)C(=O)N2C1C(=O)O (stereo not drawn) showed MIC of 25

With P. aeruginosa PA01 as the test system, CC(C)C1NC(=O)C(C(=O)NC(C(=O)NC2C(=O)N3C2SC(C)(C)C3C(=O)O)c2ccccc2)=C1O (stereo not drawn) showed MIC of 25

With P. aeruginosa PA01 as the test system, CN1CC(O)=C(C(=O)NC(C(=O)NC2C(=O)N3C2SC(C)(C)C3C(=O)O)c2ccccc2)C1=O (stereo not drawn) showed MIC of 25

With P. aeruginosa PA01 as the test system, CC1(C)SC2C(NC(=O)C(NC(=O)C3=C(O)C(Cc4ccccc4)NC3=O)c3ccccc3)C(=O)N2C1C(=O)O (stereo not drawn) showed MIC of 12.5

With P. aeruginosa PA01 as the test system, CC(C)(C)OCC1NC(=O)C(C(=O)NC(C(=O)NC2C(=O)N3C2SC(C)(C)C3C(=O)O)c2ccccc2)=C1O (stereo not drawn) showed MIC of 25

With P. aeruginosa PA01 as the test system, CC1(C)SC2C(NC(=O)C(NC(=O)C3=C(O)C(Cc4ccc(O)cc4)NC3=O)c3ccccc3)C(=O)N2C1C(=O)O (stereo not drawn) showed MIC of 50

With P. aeruginosa PA01 as the test system, CC1(C)SC2C(NC(=O)C(NC(=O)C3=C(O)C(Cc4ccsc4)NC3=O)c3ccccc3)C(=O)N2C1C(=O)O (stereo not drawn) showed MIC of 25

With P. aeruginosa PA01 as the test system, CC1NC(=O)C(C(=O)NC(C(=O)NC2C(=O)N3C2SC(C)(C)C3C(=O)O)c2ccccc2)=C1O (stereo not drawn) showed MIC of 50

With P. aeruginosa PA01 as the test system, CC1(C)SC2C(NC(=O)C(NC(=O)C3=C(O)C(Cc4ccc([N+](=O)[O-])cc4)NC3=O)c3ccccc3)C(=O)N2C1C(=O)O (stereo not drawn) showed MIC of 25

With P. aeruginosa PA01 as the test system, CC(C)CC1NC(=O)C(C(=O)NC(C(=O)NC2C(=O)N3C2SC(C)(C)C3C(=O)O)c2ccccc2)=C1O (stereo not drawn) showed MIC of 12.5
